System: DU-145 prostate
Protocol Text: NCI tumour cell line growth inhibition, 48 h
Reported Property: TGI

{"Compound": "CC1=NN(C(=O)CC(=O)N(C(=O)c2ccccc2)c2ccc(Cl)cc2)C(=O)C1N=Nc1ccc([N+](=O)[O-])cc1 (configuration not stated)", "TGI": "> 10 µM"}
{"Compound": "O=C(CCc1ccc(O)c(O)c1)OCCc1ccccc1", "TGI": "> 100 µM"}
{"Compound": "CCOC(=O)C(NC(=O)CC)(Nc1ccccc1OC)C(F)(F)F (configuration not stated)", "TGI": "> 100 µM"}

Name the recorded TGI for COc1cc2c(cc1OCc1ccccc1)N=CC1C[C@@H](O)CN1C2=O (some centres not stated) . 72.1 µM

Please answer likewise for N#CC1=C(N)Oc2c(ccc3ccccc23)C1c1cccs1 (configuration not stated) 1.03 µM

Please answer likewise for `O=CN/N=C/c1ccc(Cl)c([N+](=O)[O-])c1` > 100 µM

Please answer likewise for `Nn1c2c(c3ccccc3c1=O)C(=O)c1ccccc1-2` > 50 µM

Please answer likewise for CC(C)CSCC1OC(n2cnc3c(N)nccc32)C(O)C1O (configuration not stated) > 100 µM

Please answer likewise for `CC(=O)OCCOCn1c2c(c(=O)[nH]c1=O)CCC2` > 100 µM

Please answer likewise for `C/C=C1\C(=O)O[C@H]2C/C(C)=C/CC/C(C)=C/CC[C@@]3(C)O[C@@H]3C[C@@H]12` > 100 µM

Please answer likewise for `O=C(Nc1cccc(Cl)c1)Nc1nccs1` 65.2 µM

Please answer likewise for `Cc1ccc(Cl)cc1-c1nc(N)nc(Nc2ccc(Br)cc2)n1` > 56.5 µM

Please answer likewise for `CCOC(=O)c1nnn(-c2no[n+]([O-])c2-c2ccc(OC)cc2)c1COc1cccc2cccnc12` 17.1 µM

Please answer likewise for `CCCN(CCC)c1ccc(CO)c(Cl)c1` > 100 µM

Please answer likewise for `C/C=C/[C@@H](C(=O)OC)N1C(=O)c2ccccc2[C@H]1O` > 100 µM

Please answer likewise for CCC(=O)OC1CCC2C3CCC(=O)OC3C(C)(CCC(=O)O)CC12C (configuration not stated) 19.1 µM

Please answer likewise for `CC(=O)N1CCC(Nc2cc(C(=O)NC[C@H](O)CN3CCc4ccccc4C3)ncn2)CC1` > 100 µM

Please answer likewise for `CCCNc1[nH]c(C(=O)c2ccccc2)c(N)c1C(=S)Nc1ccccc1` > 100 µM

Please answer likewise for `Cn1cc(-c2ccc(-c3cn(C)c4ccc(Cl)cc34)[nH]2)c2cc(Cl)ccc21` 15.3 µM

Please answer likewise for Nc1nc(N)c2c(Cl)c(CNc3ccc(C(=O)NC(CC(=O)O)C(=O)O)cc3)ccc2n1 (configuration not stated) > 100 µM

Please answer likewise for COc1nc(Cl)nc(Cl)c1Cl (tested in a mixture with another compound) 15.5 µM

Please answer likewise for `O=C(N/N=C(\CN1CCN(c2cc3[nH]cc(C(=O)O)c(=O)c3cc2F)CC1)c1ccc(Cl)cc1)c1ccncc1` > 100 µM
